pIC50 values for the compounds below.
# SYSTEM_NAME: Amyloid-beta precursor protein (Homo sapiens)
# TEST: Inhibition of amyloid beta (1 to 40 residues) (unknown origin) aggregation incubated for 72 hrs by Thioflavin T assay
Reminder that pIC50 is minus the log10 of a molar concentration.

**Q:** Determine from records and report pIC50 for CC1=NN(c2ccc(-c3ccccc3)cc2)C(=O)C1
**A:** 5.25

Further cases:
**Q:** Determine from records and report pIC50 for CC1=NN(c2ccc(-n3c(-c4ccccc4)cc4ccccc43)cc2)C(=O)C1
**A:** 4.71

**Q:** Determine from records and report pIC50 for CC1=NN(c2ccc(-c3cccnc3)cc2)C(=O)C1
**A:** 4.84

**Q:** Determine from records and report pIC50 for CC1=NN(c2cccc(COCc3ccccc3)c2)C(=O)C1
**A:** 4.57

**Q:** Determine from records and report pIC50 for CC1=NN(c2ccc(-n3cccc3)cc2)C(=O)C1
**A:** 4.59

**Q:** Determine from records and report pIC50 for COc1ccc(-c2ccc(N3N=C(C)CC3=O)cc2)cc1
**A:** 5.47

----------
# SYSTEM_NAME: Amyloid-beta precursor protein (Homo sapiens, UniProt P05067)
# Sequence (P05067 whole entry, the tested form may be a part): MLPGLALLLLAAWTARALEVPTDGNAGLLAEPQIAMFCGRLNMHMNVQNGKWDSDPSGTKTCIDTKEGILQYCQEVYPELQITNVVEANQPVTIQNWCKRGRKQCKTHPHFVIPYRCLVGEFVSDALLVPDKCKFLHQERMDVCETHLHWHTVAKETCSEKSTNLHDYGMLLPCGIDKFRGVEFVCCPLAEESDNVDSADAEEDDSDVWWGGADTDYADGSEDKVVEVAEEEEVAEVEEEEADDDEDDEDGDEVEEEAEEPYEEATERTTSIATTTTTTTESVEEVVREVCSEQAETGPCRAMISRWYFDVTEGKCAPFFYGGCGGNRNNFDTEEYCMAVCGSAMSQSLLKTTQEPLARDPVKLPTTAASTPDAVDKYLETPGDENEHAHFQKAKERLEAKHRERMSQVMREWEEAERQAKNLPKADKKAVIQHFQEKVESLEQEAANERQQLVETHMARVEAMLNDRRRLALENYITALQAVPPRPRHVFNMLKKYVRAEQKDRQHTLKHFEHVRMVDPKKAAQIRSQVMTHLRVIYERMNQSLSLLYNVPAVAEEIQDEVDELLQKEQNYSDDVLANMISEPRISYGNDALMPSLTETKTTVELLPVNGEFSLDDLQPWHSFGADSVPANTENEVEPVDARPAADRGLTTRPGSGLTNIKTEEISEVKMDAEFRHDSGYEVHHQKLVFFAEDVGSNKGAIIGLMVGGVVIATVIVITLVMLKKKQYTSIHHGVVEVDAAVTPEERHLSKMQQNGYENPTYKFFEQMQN
# TEST: Inhibition of amyloid beta (1 to 40 residues) (unknown origin) aggregation at 25 uM incubated for 72 hrs by Thioflavin T assay
REPORTED_METRIC: inhibition (%)
Form entry: value (%) — number only.

Reference set (2 entries):
**Q:** Determine from records and report inhibition for CC1=NN(c2ccc(N(c3ccccc3)c3ccccc3)cc2)C(=O)C1
**A:** 50.7

**Q:** Determine from records and report inhibition for COc1ccc(-c2ccc(N3N=C(C)CC3=O)cc2)cc1
**A:** 69.6

Further cases:
**Q:** Determine from records and report inhibition for CC1=NN(c2ccccc2C)C(=O)C1
**A:** 22.7

**Q:** Determine from records and report inhibition for CC1=NN(c2cccc(COCc3ccccc3)c2)C(=O)C1
**A:** 53.4

**Q:** Determine from records and report inhibition for CC1=NN(c2ccc(C)cc2)C(=O)C1
**A:** 16.3

----------
# SYSTEM_NAME: Amyloid-beta precursor protein (Homo sapiens)
# TEST: Inhibition of N-alpha-biotinyl-amyloid beta (1 to 42 residues) (unknown origin) oligomerization incubated for 1 hr by sandwich biotin-avidin assay
pIC50: −log10 of the molar value.
REPORTED_METRIC: pIC50

Reference set (6 entries):
**Q:** Determine from records and report pIC50 for CC1=NN(c2ccc(-n3cccc3)cc2)C(=O)C1
**A:** 5.40

**Q:** Determine from records and report pIC50 for CCc1ccccc1N1N=C(C)CC1=O
**A:** < 4.30

**Q:** Determine from records and report pIC50 for CC1=NN(c2ccc(C)c(F)c2)C(=O)C1
**A:** < 4.30

**Q:** Determine from records and report pIC50 for CC1=NN(c2cccnc2)C(=O)C1
**A:** < 4.30

**Q:** Determine from records and report pIC50 for CC1=NN(c2cccc(C)c2)C(=O)C1
**A:** < 4.30

**Q:** Determine from records and report pIC50 for COc1cc(F)cc(N2N=C(C)CC2=O)c1
**A:** < 4.30

Further cases:
**Q:** Determine from records and report pIC50 for CC1=NN(c2ccccc2)C(=O)C1 [EDARAVONE]
**A:** < 4.30

**Q:** Determine from records and report pIC50 for CC1=NN(c2ccc(N(c3ccccc3)c3ccccc3)cc2)C(=O)C1
**A:** 5.40

**Q:** Determine from records and report pIC50 for CC1=NN(c2ccc(-c3ccccc3)cc2)C(=O)C1
**A:** 4.71

**Q:** Determine from records and report pIC50 for CC1=NN(c2cc(C)ccc2C)C(=O)C1
**A:** < 4.30

**Q:** Determine from records and report pIC50 for CC1=NN(c2ccc(-c3cccnc3)cc2)C(=O)C1
**A:** 5.41

**Q:** Determine from records and report pIC50 for CC1=NN(c2ccc(C(F)(F)F)cc2)C(=O)C1
**A:** < 4.30

**Q:** Determine from records and report pIC50 for COc1cc(N2N=C(C)CC2=O)nc(OC)n1
**A:** < 4.30

**Q:** Determine from records and report pIC50 for CC1=NN(c2ccc3ccccc3c2)C(=O)C1
**A:** < 4.30

**Q:** Determine from records and report pIC50 for CC1=NN(c2ccc(C)cc2)C(=O)C1
**A:** < 4.30

**Q:** Determine from records and report pIC50 for CC1=NN(c2cccc(N3CCCC3)c2)C(=O)C1
**A:** 4.77

**Q:** Determine from records and report pIC50 for CC1=NN(c2cc(F)ccc2C)C(=O)C1
**A:** < 4.30

**Q:** Determine from records and report pIC50 for CC1=NN(c2ccccc2C)C(=O)C1
**A:** < 4.30

**Q:** Determine from records and report pIC50 for CC1=NN(c2ccc(-n3c(-c4ccccc4)cc4ccccc43)cc2)C(=O)C1
**A:** 5.46

**Q:** Determine from records and report pIC50 for CC1=NN(c2cccc(COCc3ccccc3)c2)C(=O)C1
**A:** 5.54

**Q:** Determine from records and report pIC50 for COc1cccc(N2N=C(C)CC2=O)c1
**A:** < 4.30

**Q:** Determine from records and report pIC50 for COc1ccc(-c2ccc(N3N=C(C)CC3=O)cc2)cc1
**A:** 5.29
